Target: FAP-expressing human WI-38 fibroblasts (Homo sapiens, UniProt Q12884)
Construct: FAP-expressing human WI-38 fibroblasts (ECACC) were cultured in EMEM; host or cells: WI-38 human fibroblasts
Sequence (Q12884 whole entry): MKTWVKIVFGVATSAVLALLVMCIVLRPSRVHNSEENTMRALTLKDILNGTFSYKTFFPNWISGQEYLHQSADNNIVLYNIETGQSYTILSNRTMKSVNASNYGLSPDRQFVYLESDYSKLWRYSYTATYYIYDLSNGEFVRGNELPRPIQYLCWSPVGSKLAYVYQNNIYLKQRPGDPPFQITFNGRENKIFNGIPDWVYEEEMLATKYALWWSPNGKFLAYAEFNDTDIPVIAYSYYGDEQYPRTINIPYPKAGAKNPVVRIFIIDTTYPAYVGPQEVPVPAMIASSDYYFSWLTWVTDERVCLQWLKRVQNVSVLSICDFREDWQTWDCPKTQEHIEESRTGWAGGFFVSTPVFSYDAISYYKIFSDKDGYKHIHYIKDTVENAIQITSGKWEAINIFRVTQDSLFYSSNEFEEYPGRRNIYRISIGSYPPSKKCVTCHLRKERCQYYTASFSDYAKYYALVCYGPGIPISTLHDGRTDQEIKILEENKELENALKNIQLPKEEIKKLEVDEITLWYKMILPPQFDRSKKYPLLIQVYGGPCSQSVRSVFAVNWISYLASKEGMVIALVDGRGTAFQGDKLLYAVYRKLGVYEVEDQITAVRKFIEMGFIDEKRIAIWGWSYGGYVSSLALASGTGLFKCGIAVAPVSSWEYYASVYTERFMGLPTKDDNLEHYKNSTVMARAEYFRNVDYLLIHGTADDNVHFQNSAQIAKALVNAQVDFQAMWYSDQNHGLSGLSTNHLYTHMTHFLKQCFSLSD
Test: Competitive FACS binding assay
Details: pIC50 Category (FACS), competition with 3 nM Cy5-labeled compound, 4° C., 1 hour
Procedure: Cells were analyzed in an Attune NxT flow cytometer. […]
Numbered stars: 1 amine (or outer) side, 2 acyl side, 3 side chain; on linkers, the order of the positions; unused ones are H or OH. Bridge positions count the residues as written; N and C are the ends. Square brackets hold non-standard residues; d marks the D form. Peptide text beside a SMILES is read from it. * marks the point of attachment. X1 = O=C(O)CN1CCN(CC(=O)O)CCN(CC(=O)N2CCN(Cc3cc(C[*:1])cc(C[*:2])c3)CC2)CCN(CC(=O)O)CC1; X41 = NCCCCCC(=O)NCCCOCCOCCOCCCN*; Suc = O=C(CCC(=O)[*:2])[*:1]; Nle = CCCC[C@H](N)C(=O)O
Would you kindly list IC50 for each of these compounds?

- Compound: "CCCCCC(=O)N[C@H]1CSCc2cc(CSCCNC(=O)CN(CCN(CC(=O)O)CC(=O)O)CCN(CC(=O)O)CC(=O)O)cc(c2)CSC[C@@H](C(=O)O)NC(=O)[C@H](Cc2ccccc2)NC(=O)[C@H](CCC(N)=O)NC(=O)[C@H]([C@@H](C)O)NC(=O)[C@@H]2CCCN2C(=O)[C@@H]2CCCN2C1=O"
  Measured: "10 to 79.4 nM"
- Compound: "CCCCCC(=O)N[C@H]1CSCc2cc(CSCCNC(=O)C(CNCCN)CNCCN)cc(c2)CSC[C@@H](C(=O)O)NC(=O)[C@H](Cc2ccccc2)NC(=O)[C@H](CCC(N)=O)NC(=O)[C@H]([C@@H](C)O)NC(=O)[C@@H]2CCCN2C(=O)[C@@H]2CCCN2C1=O"
  Measured: "< 10 nM"
- Compound: "CCCCCC(=O)N[C@H]1CSCc2cc(CSCCNC(=O)CCCC(=O)Nc3ccc(C[C@H](CN(CCN(CC(=O)O)CC(=O)O)CC(=O)O)N(CC(=O)O)CC(=O)O)cc3)cc(c2)CSC[C@@H](C(=O)O)NC(=O)[C@H](Cc2ccccc2)NC(=O)[C@H](CCC(N)=O)NC(=O)[C@H]([C@@H](C)O)NC(=O)[C@@H]2CCCN2C(=O)[C@@H]2CCCN2C1=O"
  Measured: "100 to 794 nM"
- Compound: "CCCC[C@H](NC(=O)CCC(=O)NCCCOCCOCCOCCCNC(=O)CCCCCN)C(=O)N[C@H]1CSCc2cc(cc(CN3CCN(C(=O)CN4CCN(CC(=O)O)CCN(CC(=O)O)CCN(CC(=O)O)CC4)CC3)c2)CSC[C@@H](C(=O)N[C@@H](CC(=O)O)C(N)=O)NC(=O)[C@H](Cc2ccccc2)NC(=O)[C@H](CCC(N)=O)NC(=O)[C@H]([C@@H](C)O)NC(=O)[C@@H]2CCCN2C(=O)[C@@H]2CCCN2C1=O [3BP-4004] ({X41-Suc}-[Nle]CPPTQFCD-NH2; linker 2-8 via X1)"
  Measured: "10 to 79.4 nM"

Now for the compound whose IC50 we want.
Which IC50 value belongs to CCCCCC(=O)N[C@H]1CSCc2cc(CSCCNC(=O)CN3CCN4CCN5CCN(CC3)CC(=O)[O][Lu]([O]C(=O)C4)[O]C(=O)C5)cc(c2)CSC[C@@H](C(=O)N[C@@H](CC(=O)O)C(=O)NCCCC(=O)NC(CCCNC(=N)N)C(=O)NCCCOCCOCCOCCCNC(=O)CCC(=O)NC(CCCCNC(=O)c2ccc(-c3c4ccc(=N)c(S(=O)(=O)O)c-4oc4c(S(=O)(=O)O)c(N)ccc34)c(C(=O)O)c2)C(N)=O)NC[C@H](Cc2ccccc2)NC(=O)[C@H](CCC(N)=O)NC(=O)C([C@@H](C)O)NC(=O)[C@@H]2CCCN2C(=O)[C@@H]2CCCC2C1=O (some centres unmarked) ?
< 10 nM
